MEASURED METRIC: logP

- COc1cc2c(cc1OC)C1Cc3ccc(OC)c(OC)c3CN1CC2 (stereo unspecified): 2.6

###

# MEASUREMENT PROTOCOL: method code SF-AS, from DOI: 10.1016/j.ejmech.2011.02.056, PMID: 21420207
MEASURED METRIC: logP

- CCCCCCCCCCCCCCCCCC(=O)N[C@H]1C[C@H](O[C@H]2C[C@](O)(C(=O)CO)Cc3c(O)c4c(c(O)c32)C(=O)c2c(OC)cccc2C4=O)O[C@@H](C)[C@H]1O: 2.17
- CCSCCCCCCCCCCCC(=O)NC1CC(OC2CC(O)(C(=O)CO)Cc3c(O)c4c(c(O)c32)C(=O)c2c(OC)cccc2C4=O)OC(C)C1O (stereo not given): 2
- CCCCCCCCCC(=O)N[C@H]1C[C@H](O[C@H]2C[C@](O)(C(=O)CO)Cc3c(O)c4c(c(O)c32)C(=O)c2c(OC)cccc2C4=O)O[C@@H](C)[C@H]1O: 1.92
- CCCCCCCCCCCCCC(=O)N[C@H]1C[C@H](O[C@H]2C[C@](O)(C(=O)CO)Cc3c(O)c4c(c(O)c32)C(=O)c2c(OC)cccc2C4=O)O[C@@H](C)[C@H]1O: 1.94
- CCCCCCCCCCCCCCCCCCCC(=O)N[C@H]1C[C@H](O[C@H]2C[C@](O)(C(=O)CO)Cc3c(O)c4c(c(O)c32)C(=O)c2c(OC)cccc2C4=O)O[C@@H](C)[C@H]1O: 2.31

The values you see were collected from the SangsterLogP compilation.
